# EXPERIMENT: amyloid nucleation score (Sup35N fusion, yeast selection) (log enrichment); library NNK2; higher = more nucleation; inactive = no reads after selection;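 note: zero at mode of non-aggregating sequences after 7 days selection at 30°C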
Classification field: enter met for amyloid nucleation score values not below 4, not met for values below it.

- VSCCYRFSASNQIIVTPFSS: met
- LLLRGQLQVMPGDPARRMYV: not met
- PDFLAVGHVSTFVHFTVETG: not met
- FLNNVVYRHCDSYLTGNCRN: met
- PCVLKLRSSSKSISCSWGVS: not met

* * *

# EXPERIMENT: amyloid nucleation score (Sup35N fusion, yeast selection) (log enrichment); library NNK1; higher = more nucleation; inactive = no reads after selection
Response field class: enum, chosen by comparing amyloid nucleation score against I: < 0.04; II: ≥ 0.04 and < 0.7; III: ≥ 0.7

- MQVNIVGVSILVAWPR: III
- GRLISETNLAKSYSL: I
- SNSSMWAYRVC: II
- GTSSGLV: II
- RLSRKISSWLTRYIIAWSWS: I
- CRATTP: II
- DTKCMMENRAIVMFCIQGKH: III
- RIDTFTWSCKCLPPSSIWLL: I
- YYEMIFSWVTPHSYRDTSYC: I
- AIQYHNWGSEACLWHERESG: II
- GRGSMLFW: III
- GEIGNIPLMKRRTEWQFVVA: II
- TDNTVVVMHWFHTFSPGARK: III
- NLLGYVNVQVGAVYTGNNRL: III
- GAQATFEVHCLERTVWVYR: I
- PGFFWHICFG: III
- SCEFLCVRHVLCHHLSLNVS: II
- VKFMMRLDYYCPLSTVQTTA: I
- TLNGFPLSISTANCEVRYDK: I
- HCIWKMLNLFSSLRLSIKLI: I
- TVLGQH: I
- HQTCCLWSTVVLGV: III
- RSMRDLDPTMVFGSVNSLGW: II
- FEHWCFRLPCVKDESCWD: III
- QAKPIIGRRTPLNDFNSPLY: II
- PKGIGGGCARTYRHRVRGSR: II
- TASNHVVLSHPDSGILGIRA: I
- FIRFTICALTSKVDFI: III
- CAVQQYRNRRGNM: II
- GVLLGVTSFEFFMGTLEVAW: II
- RRGGGGSSIFLMHTAWILLE: III
- AMNFWRKILIFSELVYG: III
- PWYTSLEIKRSEETCKAMPF: II
- FIVFISFSFWRVTGIR: I
- TVNGLPN: III
- RCRAVELLEVRRLQMRSGHH: I
- DSMKMIILVDVGRNHGLGHR: III
- AFGADKTRYMSVFTKCVS: II
- CSNDMGEQWWEDRYCTGKWD: I
- YPCCKICDYIKS: I
- IWHFASCAYGGVGSKGDPSD: II
- TDWARTRSQRHVLHDSPAGL: I
- YSADMFRADGLWFRGSRWG: II
- CDSFVSFMPNFNFFR: III
- LIEDHVLYHVRAKKYRSHYI: I
- QDRENLNCIHY: III
- FMMCAYSLVPILLP: II
- CWVCNEKRAFRRPVSNQLRV: I
- STFAALNVKSCGVCLMWLLD: II
- RIFNIYNGVQRRNFYYFYSC: III
- YVQTLSNTECNAIANMHERF: II
